The reader will find reported pIC50 values listed item by item below.
Test system: HN3 ACC primary culture
Test: cells
Type: cell-based, human
Conditions: read-out: IC50
In textbook form, pIC50 equals minus log to base ten of the concentration in mol/L.

The cases that follow already have their pIC50 on record.
INSERT INTO measurements (molecule, quantity, assay_value) VALUES
  ('CC1=C(N2CC2)C(=O)C(CO)=C(N2CC2)C1=O', 'pIC50', 9.07),
  ('CO[C@@]12[C@H](COC(N)=O)C3=C(C(=O)C(C)=C(N)C3=O)N1C[C@@H]1N[C@@H]12', 'pIC50', 5.94),
  ('N.N.[Cl][Pt][Cl] [Cisp, cisplatin]', 'pIC50', 5.55);

Entry `COc1cccc2c1C(=O)c1c(O)c3c(c(O)c1C2=O)C[C@@](O)(C(=O)CO)C[C@@H]3O[C@H]1C[C@H](N)[C@H](O)[C@H](C)O1` needs its pIC50 filled in; supply it.
7.22

---

System: HN1 ACC primary culture
Assay: cells
Type: cell-based, human
Conditions: read-out: IC50
This listing pairs molecules with measured pIC50.
pIC50 here is simply -log10 of the concentration when that concentration is written in mol/L.

Some solved entries appear below for comparison.
INSERT INTO measurements (molecule, assay_value) VALUES
  ('N.N.[Cl][Pt][Cl] [Cisp, cisplatin]', 5.30),
  ('CO[C@@]12[C@H](COC(N)=O)C3=C(C(=O)C(C)=C(N)C3=O)N1C[C@@H]1N[C@@H]12', 5.76);

Below: the item to evaluate.
Look up and report pIC50, with HN1 ACC primary culture as system, for `CC1=C(N2CC2)C(=O)C(CO)=C(N2CC2)C1=O`
8.15

---

System: DOK
Experiment: Growth inhibition assay (SRB)
Type: cell-based
Details: DOK, 5-7 days; read-out: IC50
Parameter: IC50. Scope: all listed entries.
# unit: nM | format: bare number

Check out these entries, answers already filled in.
INSERT INTO assay_data (compound, unit_label, assay_value) VALUES
  ('COc1cccc2c1C(=O)c1c(O)c3c(c(O)c1C2=O)C[C@@](O)(C(=O)CO)C[C@@H]3O[C@H]1C[C@H](N)[C@H](O)[C@H](C)O1', 'nM', 20),
  ('N.N.[Cl][Pt][Cl] [Cisp, cisplatin]', 'nM', 3700),
  ('N[C@@H](Cc1ccc(N(CCCl)CCCl)cc1)C(=O)O', 'nM', 111000),
  ('CO[C@@]12[C@H](COC(N)=O)C3=C(C(=O)C(C)=C(N)C3=O)N1C[C@@H]1N[C@@H]12', 'nM', 60),
  ('Nc1ccn([C@@H]2O[C@H](CO)[C@@H](O)C2(F)F)c(=O)n1', 'nM', 7.06);

Identify measured IC50 corresponding to `O=c1[nH]cc(F)c(=O)[nH]1`
22000

---

Test system: HN5 ACC primary culture
Experiment: Growth inhibition assay (SRB)
Assay type: cell-based, human
Details: read-out: IC50
Parameter pIC50: see the listing below.
A value of pIC50 is the negative decimal logarithm of a concentration given in moles per litre.

INSERT INTO measurements (compound_smiles, quantity, assay_value) VALUES
  ('CC1=C(N2CC2)C(=O)C(CO)=C(N2CC2)C1=O', 'pIC50', 9.06);

Let's switch to this compound now.
Indicate its recorded pIC50; the compound in question is `COc1ccc(/C=C\c2cc(OC)c(OC)c(OC)c2)cc1O`
8.51
